Data origin: patent US11629143B2

Recorded inhibition at 5 µM, one value per entry.
target: AXL (Homo sapiens); assay: Kinase panel (mobility shift); format: biochemical
Sequence (P30530 26-894, species assumed): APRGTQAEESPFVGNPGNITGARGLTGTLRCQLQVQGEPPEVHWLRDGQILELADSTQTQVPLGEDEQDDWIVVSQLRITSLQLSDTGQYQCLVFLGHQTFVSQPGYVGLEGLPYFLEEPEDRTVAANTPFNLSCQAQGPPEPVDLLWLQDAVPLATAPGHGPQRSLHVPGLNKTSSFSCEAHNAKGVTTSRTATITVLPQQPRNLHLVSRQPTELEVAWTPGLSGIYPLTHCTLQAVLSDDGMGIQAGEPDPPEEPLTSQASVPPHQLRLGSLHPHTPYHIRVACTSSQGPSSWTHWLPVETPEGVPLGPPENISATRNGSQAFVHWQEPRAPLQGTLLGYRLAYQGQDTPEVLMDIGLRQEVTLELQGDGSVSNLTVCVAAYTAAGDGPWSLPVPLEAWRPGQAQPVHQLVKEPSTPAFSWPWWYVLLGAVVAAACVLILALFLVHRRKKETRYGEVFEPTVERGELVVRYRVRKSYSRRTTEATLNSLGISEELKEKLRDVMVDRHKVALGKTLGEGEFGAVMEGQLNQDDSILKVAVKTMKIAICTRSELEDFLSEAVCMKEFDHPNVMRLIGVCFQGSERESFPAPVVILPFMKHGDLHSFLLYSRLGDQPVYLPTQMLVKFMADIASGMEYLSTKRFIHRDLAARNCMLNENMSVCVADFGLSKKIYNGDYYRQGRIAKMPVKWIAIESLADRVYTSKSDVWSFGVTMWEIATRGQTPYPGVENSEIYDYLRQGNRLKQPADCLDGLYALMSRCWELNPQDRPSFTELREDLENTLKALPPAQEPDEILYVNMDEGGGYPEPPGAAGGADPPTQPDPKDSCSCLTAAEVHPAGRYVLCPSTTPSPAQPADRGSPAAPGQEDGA

Examples with answers:
Find the recorded inhibition at 5 µM belonging to [2H]C([2H])([2H])NC(=O)c1cc(Oc2ccc(NC(=O)c3nc(SC)oc3-c3ccc(F)c(F)c3)cc2F)ccn1 [Compound 33] and report it. < 50%

Find the recorded inhibition at 5 µM belonging to CNC(=O)c1cc(Oc2c(F)cc(NC(=O)c3nc(NC)sc3-c3ccc(F)cc3)cc2F)ccn1 [Compound 19] and report it. < 50%

Find the recorded inhibition at 5 µM belonging to CNC(=O)c1cc(Oc2ccc(NC(=O)c3nc(C4CC4)oc3-c3ccc(F)cc3)cc2F)ccn1 [Compound 26] and report it. 50 to 79%

Now take the following compound into account.
Find the recorded inhibition at 5 µM belonging to CNC(=O)c1cc(Oc2ccc(NC(=O)c3nc(OC)oc3-c3ccc(F)cc3)cc2F)ccn1 [Compound 15] and report it. 50 to 79%

###

target: LCK (Homo sapiens); assay: Kinase panel (mobility shift); assay type: biochemical
Sequence (P06239 whole entry, species assumed): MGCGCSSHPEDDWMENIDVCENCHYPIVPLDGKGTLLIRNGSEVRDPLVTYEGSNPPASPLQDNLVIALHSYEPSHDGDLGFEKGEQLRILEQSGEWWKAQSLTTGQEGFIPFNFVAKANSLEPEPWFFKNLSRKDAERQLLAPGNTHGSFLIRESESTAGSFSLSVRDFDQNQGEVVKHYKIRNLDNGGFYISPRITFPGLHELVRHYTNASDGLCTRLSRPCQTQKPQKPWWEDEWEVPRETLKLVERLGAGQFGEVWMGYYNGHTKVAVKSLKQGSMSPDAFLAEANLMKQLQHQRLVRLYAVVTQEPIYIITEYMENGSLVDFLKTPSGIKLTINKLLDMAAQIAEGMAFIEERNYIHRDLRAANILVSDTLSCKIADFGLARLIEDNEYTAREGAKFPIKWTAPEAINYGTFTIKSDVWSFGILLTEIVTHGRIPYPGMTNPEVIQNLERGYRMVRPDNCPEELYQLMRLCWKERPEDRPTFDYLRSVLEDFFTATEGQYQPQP
readout: inhibition at 5 µM

Find the recorded inhibition at 5 µM belonging to "CNC(=O)c1cc(Oc2ccc(NC(=O)c3nc(NC)oc3-c3ccc(F)cc3)cc2F)ccn1" and report it. 50 to 79%

Find the recorded inhibition at 5 µM belonging to "COc1nc(C(=O)Nc2ccc(Oc3ccnc(C(=O)NCC(F)(F)F)c3)c(F)c2)c(-c2ccc(F)cc2)o1" and report it. < 50%

Others:
Find the recorded inhibition at 5 µM belonging to "CNC(=O)c1ccc(Oc2ccc(NC(=O)c3nc(Cl)oc3-c3ccc(F)cc3)c(F)c2)cn1" and report it. < 50%

Find the recorded inhibition at 5 µM belonging to "CSc1nc(C(=O)Nc2ccc(Oc3ccnc(C(=O)NCC(F)(F)F)c3)c(F)c2)c(-c2ccc(F)cc2)o1" and report it. < 50%

Find the recorded inhibition at 5 µM belonging to "CNC(=O)c1cc(Oc2ccc(NC(=O)c3nc(NC)sc3-c3ccc(F)cc3C)cc2F)ccn1" and report it. 80 to 89%

###

biological target: MER (Homo sapiens, UniProt Q12866); experiment: Kinase panel (mobility shift); type: biochemical
Sequence (Q12866 21-999): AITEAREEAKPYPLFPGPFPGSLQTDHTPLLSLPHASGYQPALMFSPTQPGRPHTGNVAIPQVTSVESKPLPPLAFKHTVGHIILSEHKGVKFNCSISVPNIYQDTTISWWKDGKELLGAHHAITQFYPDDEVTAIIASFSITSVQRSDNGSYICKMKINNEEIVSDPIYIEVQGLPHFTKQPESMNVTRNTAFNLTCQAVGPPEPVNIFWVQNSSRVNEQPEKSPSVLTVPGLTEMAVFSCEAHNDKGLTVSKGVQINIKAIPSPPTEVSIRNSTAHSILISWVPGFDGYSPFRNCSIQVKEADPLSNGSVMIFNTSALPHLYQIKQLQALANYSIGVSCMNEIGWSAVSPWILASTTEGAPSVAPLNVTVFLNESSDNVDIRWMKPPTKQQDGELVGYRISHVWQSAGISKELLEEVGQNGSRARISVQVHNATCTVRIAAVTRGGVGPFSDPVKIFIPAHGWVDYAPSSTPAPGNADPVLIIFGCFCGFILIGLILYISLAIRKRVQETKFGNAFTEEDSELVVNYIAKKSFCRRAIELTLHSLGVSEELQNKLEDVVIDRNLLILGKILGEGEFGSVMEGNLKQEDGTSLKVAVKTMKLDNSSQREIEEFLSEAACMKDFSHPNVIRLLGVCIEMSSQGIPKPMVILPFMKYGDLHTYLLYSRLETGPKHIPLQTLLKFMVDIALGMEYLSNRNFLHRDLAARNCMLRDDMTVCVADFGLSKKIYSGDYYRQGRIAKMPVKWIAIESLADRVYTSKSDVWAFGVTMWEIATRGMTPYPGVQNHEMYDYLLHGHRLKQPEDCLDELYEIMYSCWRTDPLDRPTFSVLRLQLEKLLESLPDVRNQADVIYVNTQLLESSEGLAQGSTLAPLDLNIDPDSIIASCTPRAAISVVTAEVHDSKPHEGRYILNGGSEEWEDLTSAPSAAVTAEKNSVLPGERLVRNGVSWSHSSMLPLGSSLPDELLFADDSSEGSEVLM
Recorded inhibition at 5 µM, one value per entry.

Examples with answers:
Recorded inhibition at 5 µM for "COc1nc(C(=O)Nc2ccc(Oc3ccnc(C(=O)NCC(F)(F)F)c3)c(F)c2)c(-c2ccc(F)cc2)o1" with MER (Homo sapiens, UniProt Q12866), please? < 50%

Recorded inhibition at 5 µM for "CNC(=O)c1cc(Oc2ccc(NC(=O)c3nc(SC)oc3-c3ccc(OC)cc3)cc2)ccn1" with MER (Homo sapiens, UniProt Q12866), please? < 50%

Recorded inhibition at 5 µM for "CNC(=O)c1cc(Oc2ccc(NC(=O)c3nc(OCC(F)(F)F)oc3-c3ccc(F)cc3)cc2F)ccn1" with MER (Homo sapiens, UniProt Q12866), please? 80 to 89%

Recorded inhibition at 5 µM for "CNC(=O)c1cc(Oc2ccc(NC(=O)c3nc(SC(C)C)oc3-c3ccc(F)cc3)cc2F)ccn1" with MER (Homo sapiens, UniProt Q12866), please? 90 to 94%

Recorded inhibition at 5 µM for "CSc1nc(C(=O)Nc2ccc(Oc3ccnc(C(=O)NCC(F)(F)F)c3)c(F)c2)c(-c2ccc(F)cc2)o1" with MER (Homo sapiens, UniProt Q12866), please? < 50%

Now take the following compound into account.
Recorded inhibition at 5 µM for "CNC(=O)c1cc(Oc2ccc(NC(=O)c3nc(C4CC4)oc3-c3ccc(F)cc3)cc2F)ccn1" with MER (Homo sapiens, UniProt Q12866), please? 80 to 89%

###

Recorded inhibition at 5 µM, one value per entry.
molecular target: UniProt P12931; assay: Kinase panel (mobility shift); assay type: biochemical
Sequence (P12931 whole entry, species assumed): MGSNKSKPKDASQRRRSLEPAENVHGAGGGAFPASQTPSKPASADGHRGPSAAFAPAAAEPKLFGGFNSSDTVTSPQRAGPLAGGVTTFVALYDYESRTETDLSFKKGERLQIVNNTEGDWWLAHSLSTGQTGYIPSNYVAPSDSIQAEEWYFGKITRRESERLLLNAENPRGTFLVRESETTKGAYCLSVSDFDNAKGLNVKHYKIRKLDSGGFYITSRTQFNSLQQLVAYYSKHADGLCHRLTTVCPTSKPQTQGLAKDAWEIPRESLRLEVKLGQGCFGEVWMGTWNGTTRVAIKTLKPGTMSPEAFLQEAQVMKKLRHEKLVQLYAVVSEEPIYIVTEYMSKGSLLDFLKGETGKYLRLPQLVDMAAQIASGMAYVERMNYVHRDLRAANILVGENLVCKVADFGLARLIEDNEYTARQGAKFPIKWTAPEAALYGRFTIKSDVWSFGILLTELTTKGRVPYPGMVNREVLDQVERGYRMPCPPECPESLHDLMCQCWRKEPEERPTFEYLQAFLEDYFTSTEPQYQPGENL

Find the recorded inhibition at 5 µM belonging to CNC(=O)c1cc(Oc2ccc(NC(=O)c3nc(OC)oc3-c3ccc(F)c(F)c3)cc2F)ccn1 [Compound 24] and report it. < 50%

Find the recorded inhibition at 5 µM belonging to CNC(=O)c1cc(Oc2ccc(NC(=O)c3nc(OC)oc3-c3ccc(F)s3)cc2F)ccn1 [Compound 25] and report it. < 50%

Find the recorded inhibition at 5 µM belonging to COc1nc(C(=O)Nc2ccc(Oc3ccnc(C(=O)NCC(F)(F)F)c3)c(F)c2)c(-c2ccc(F)cc2)o1 [Compound 43] and report it. < 50%

Find the recorded inhibition at 5 µM belonging to CSc1nc(C(=O)Nc2ccc(Oc3ccnc(-c4cnn(C)c4)c3)c(F)c2)c(-c2ccc(F)cc2)o1 [Compound 11] and report it. 50 to 79%

Find the recorded inhibition at 5 µM belonging to CNC(=O)c1cc(Oc2ccc(NC(=O)c3nc(COC)oc3-c3ccc(F)cc3)cc2F)ccn1 [Compound 30] and report it. 50 to 79%

Find the recorded inhibition at 5 µM belonging to CNC(=O)c1cc(Oc2ccc(NC(=O)c3nc(SC)oc3-c3ccc(F)c(F)c3)cc2)ccn1 [Compound 4] and report it. < 50%

Find the recorded inhibition at 5 µM belonging to CNC(=O)c1cc(Oc2ccc(NC(=O)c3nc(NC)oc3-c3ccc(F)cc3)cc2F)ccn1 [Compound 14] and report it. < 50%

Find the recorded inhibition at 5 µM belonging to CSc1nc(C(=O)Nc2ccc(Oc3ccnc(C(=O)NC4CCN(C)CC4)c3)c(F)c2)c(-c2ccc(F)cc2)o1 [Compound 42] and report it. < 50%

Find the recorded inhibition at 5 µM belonging to CNC(=O)c1cc(Oc2ccc(NC(=O)c3nc(SC)oc3-c3ccc(F)s3)cc2F)ccn1 [Compound 16] and report it. < 50%

Find the recorded inhibition at 5 µM belonging to CNC(=O)c1cc(Oc2c(F)cc(NC(=O)c3nc(NC)sc3-c3ccc(F)cc3)cc2F)ccn1 [Compound 19] and report it. < 50%

Now take the following compound into account.
Find the recorded inhibition at 5 µM belonging to CNC(=O)c1cc(Oc2ccc(NC(=O)c3nc(NC)sc3-c3ccc(F)cc3C)cc2F)ccn1 [Compound 23] and report it. < 50%

###

Recorded inhibition at 5 µM, one value per entry.
molecular target: TIE2 (Homo sapiens, UniProt Q02763); test: Kinase panel (mobility shift); assay type: biochemical
Sequence (Q02763 23-1124, species assumed): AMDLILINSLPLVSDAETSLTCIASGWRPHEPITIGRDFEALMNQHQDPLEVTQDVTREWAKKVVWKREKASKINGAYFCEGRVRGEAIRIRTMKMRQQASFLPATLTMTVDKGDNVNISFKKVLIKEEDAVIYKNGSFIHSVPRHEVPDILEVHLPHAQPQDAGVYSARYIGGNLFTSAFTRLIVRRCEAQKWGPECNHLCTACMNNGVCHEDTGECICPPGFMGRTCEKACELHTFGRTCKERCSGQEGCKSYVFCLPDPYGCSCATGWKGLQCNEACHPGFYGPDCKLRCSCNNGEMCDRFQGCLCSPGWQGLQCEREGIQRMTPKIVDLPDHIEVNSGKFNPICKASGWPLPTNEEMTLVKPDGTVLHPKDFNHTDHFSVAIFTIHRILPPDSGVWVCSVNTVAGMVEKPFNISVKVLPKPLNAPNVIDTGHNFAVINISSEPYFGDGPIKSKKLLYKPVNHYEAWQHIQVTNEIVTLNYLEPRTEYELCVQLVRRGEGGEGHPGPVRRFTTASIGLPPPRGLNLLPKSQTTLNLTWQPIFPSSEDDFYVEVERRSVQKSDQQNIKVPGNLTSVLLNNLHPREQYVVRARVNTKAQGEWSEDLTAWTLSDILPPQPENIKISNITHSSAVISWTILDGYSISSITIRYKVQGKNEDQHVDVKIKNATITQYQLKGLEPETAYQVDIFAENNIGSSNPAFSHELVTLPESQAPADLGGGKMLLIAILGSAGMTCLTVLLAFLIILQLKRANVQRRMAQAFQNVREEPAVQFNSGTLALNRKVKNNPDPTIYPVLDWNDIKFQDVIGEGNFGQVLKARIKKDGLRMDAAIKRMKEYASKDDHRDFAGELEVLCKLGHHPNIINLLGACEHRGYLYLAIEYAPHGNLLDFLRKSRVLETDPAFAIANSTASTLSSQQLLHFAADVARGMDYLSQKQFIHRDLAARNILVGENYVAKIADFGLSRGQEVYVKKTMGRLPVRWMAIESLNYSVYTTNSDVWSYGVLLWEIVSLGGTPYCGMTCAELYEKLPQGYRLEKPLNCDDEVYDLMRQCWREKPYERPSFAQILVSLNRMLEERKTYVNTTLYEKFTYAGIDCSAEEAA

Find the recorded inhibition at 5 µM belonging to "CSc1nc(C(=O)Nc2ccc(Oc3ccnc(C(=O)NCCN(C)C)c3)c(F)c2)c(-c2ccc(F)cc2)o1" and report it. < 50%

Find the recorded inhibition at 5 µM belonging to "CSc1nc(C(=O)Nc2ccc(Oc3ccnc(N)c3Cl)c(F)c2)c(-c2ccc(F)cc2)o1" and report it. < 50%

Find the recorded inhibition at 5 µM belonging to "CNC(=O)c1cc(Oc2ccc(NC(=O)c3nc(S(C)(=O)=O)sc3-c3ccc(F)cc3)cc2F)ccn1" and report it. 50 to 79%

Find the recorded inhibition at 5 µM belonging to "CNC(=O)c1cc(Oc2ccc(NC(=O)c3nc(SC)oc3-c3ccc(F)cc3F)cc2)ccn1" and report it. 80 to 89%

Find the recorded inhibition at 5 µM belonging to "CSc1nc(C(=O)Nc2ccc(Oc3ccnc(C(=O)NC4COC4)c3)c(F)c2)c(-c2ccc(F)s2)o1" and report it. < 50%

Find the recorded inhibition at 5 µM belonging to "CSc1nc(C(=O)Nc2ccc(Oc3cc4cnn(C)c4cc3Br)c(F)c2)c(-c2ccc(F)cc2)o1" and report it. 50 to 79%

Find the recorded inhibition at 5 µM belonging to "CNC(=O)c1cc(Oc2ccc(NC(=O)c3nc(OC)oc3-c3ccc(F)s3)cc2F)ccn1" and report it. < 50%

Find the recorded inhibition at 5 µM belonging to "CNC(=O)c1cc(Oc2c(F)cc(NC(=O)c3nc(NC)sc3-c3ccc(F)cc3)cc2F)ccn1" and report it. 50 to 79%

Find the recorded inhibition at 5 µM belonging to "CNC(=O)c1cc(Oc2ccc(NC(=O)c3nc(SC)oc3-c3ccc(F)cc3Cl)cc2)ccn1" and report it. 50 to 79%

Find the recorded inhibition at 5 µM belonging to "CNC(=O)c1cc(Oc2ccc(NC(=O)c3nc(SC(C)C)oc3-c3ccc(F)cc3)cc2F)ccn1" and report it. 80 to 89%

Others:
Find the recorded inhibition at 5 µM belonging to "CNC(=O)c1cc(Oc2ccc(NC(=O)c3nc(SC)oc3-c3ccc(OC)cc3)cc2)ccn1" and report it. < 50%

Find the recorded inhibition at 5 µM belonging to "CNC(=O)c1cc(Oc2ccc(NC(=O)c3nc(OC)oc3-c3ccc(F)c(F)c3)cc2F)ccn1" and report it. < 50%

Find the recorded inhibition at 5 µM belonging to "COc1nc(C(=O)Nc2ccc(Oc3ccnc(C(=O)NCC(F)(F)F)c3)c(F)c2)c(-c2ccc(F)cc2)o1" and report it. < 50%

Find the recorded inhibition at 5 µM belonging to "CSc1nc(C(=O)Nc2ccc(Oc3ccnc(C(=O)NC4COC4)c3)c(F)c2)c(-c2ccc(F)cc2)o1" and report it. < 50%

Find the recorded inhibition at 5 µM belonging to "CNC(=O)c1cc(Oc2ccc(NC(=O)c3nc(OC)oc3-c3ccc(F)cc3)cc2F)ccn1" and report it. < 50%
